# TARGET OR TEST SYSTEM: T1, human TL1A (human, UniProt O95150 72-251, limits assumed)
# T1 construct: also called huTL1A; TNFSF15
# T1 sequence (looked up): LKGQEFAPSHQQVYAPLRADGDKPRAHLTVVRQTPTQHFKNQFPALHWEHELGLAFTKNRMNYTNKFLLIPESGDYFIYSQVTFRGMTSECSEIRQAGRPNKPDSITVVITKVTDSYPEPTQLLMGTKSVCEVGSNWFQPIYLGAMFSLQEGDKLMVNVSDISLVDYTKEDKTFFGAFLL
# ASSAY REMARKS: hybridoma screening after immunisation with recombinant human TL1A soluble protein; member named through Tables A, C and D

BINDER | binding result
89H9 (antibody, human IgG2, kappa, V domains shown, also called iPS 427509) VH: EVHLLESGGGLVQPGGSLRLSCAASGFTFSSYAMSWVRQAPGKGLEWVSGISGGGGSTYYADSVKGRFTISRDNSKNTLYLQMNSLRAENTAVYYCAIEMAGAFDIWGQGTMVTVSS VL: DIQMIQSPSSLSASVGDSVTITCRASQSISYYLNWYQQKPGKAPKFLIYAASSLQSGVPSRFSGSGSGTDFTLTISSLQPEDFATYYCQQSYSSITFGQGTRLEIKR | binds
57A8 (antibody, V domains shown, also called iPS 427519) VH: EIQLLESGGGLVQPGGSLRLSCVASGFTFSSYVMSWVRQAPGKGLEWVSVISGSGGSTYYADSVKGRFTISRDNSKTTLYLQMNSLRAEDTAVYYCAKGGTNYYYYYSGMDVWGQGTTVTVSS VL: QSVLTQPPSVSGAPGQRVTISCTGSSSNIGAGYNVHWYQQLPGTAPKLLIYGNNNRPSGVPDRFSGSKSGTSASLAITGLQTEDEADYYCQSYDSSLSGWVFGGGTKLTVL | binds
92D3 (antibody, human IgG2, kappa, V domains shown, also called iPS 427564) VH: QVQLVQSGAEVKKPGASVQVSCKASGYTFTGYYMHWIRQAPGQGLEWLGWIIPNSGGTNYAQKFQGRVTMTRDTSISTAYMELSRLRSDDTAVYYCATGSSWEGFDYWGQGTLVTVSS VL: DIQMTQSPSSLSASVGDRVTITCRASQSISSYLNWYQQKPGTAPKFLIYGASRLQSGVPSRFSGSGSGTDFTLTISSLQPEDFATYYCQQSDTTPITFGQGTRLEIKR | binds
60G11 (antibody, human IgG2, lambda, V domains shown, also called iPS 427493) VL: QSVLTQPPSVSGAPGQRVTISCTGSGSNIGAGYDVHWYQQLPGTAPKLLIYGNSHRPSGIPDRFSGSKSGTSASLAITGLQAEDEADYYCQSYDSSLSGYVFGTGTKVTVLG V domain: EVQLLESGGGLVQPGGSLRLSCAASGFTFSNYAMNWVRQAPGKGLEWVSVISGRGGSTYYADSVKGRFTISRDNSRNTLYLQMNSLRAEDTAIYYCAKDGYSSAWFFDYWGQGTLITVSS | binds
